Data provenance is patent US7045532B2.

Consider the following compounds; for each one, report its Ki.
target: Carboxypeptidase A (Bos taurus); assay: Carboxypeptidase A activity assay; format: biochemical; settings: Ki class; compounds tested in 5% DMSO, 12 concentrations
Sequence (P00730 111-419): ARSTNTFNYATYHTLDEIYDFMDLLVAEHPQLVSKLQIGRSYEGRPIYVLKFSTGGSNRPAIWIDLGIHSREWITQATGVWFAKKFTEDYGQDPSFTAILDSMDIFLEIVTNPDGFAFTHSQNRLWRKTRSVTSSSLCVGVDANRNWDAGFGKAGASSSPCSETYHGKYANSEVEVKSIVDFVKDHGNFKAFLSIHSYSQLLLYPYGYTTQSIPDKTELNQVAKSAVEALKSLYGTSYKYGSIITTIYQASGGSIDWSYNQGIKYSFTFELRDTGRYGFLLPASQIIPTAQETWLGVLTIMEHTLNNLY

## Input // Ki lookup, key: COc1ccc(Cn2cnc(C[C@H](NC(CC(C)C)C(=O)O)C(=O)O)c2)cc1 (stereo partly drawn)
## Output > 50 µM

## Input // Ki lookup, key: CSCC[C@H](NC(C)C(=O)O)C(=O)O (stereo partly drawn)
## Output > 50 µM

## Input // Ki lookup, key: CCCC(N[C@@H](CC(C)C)C(=O)O)C(=O)O (stereo in doubt)
## Output > 50 µM

## Input // Ki lookup, key: CC(C)CC(N[C@@H](Cc1cn(Cc2ccccc2)cn1)C(=O)O)C(=O)O (single isomer, unassigned) [DM]
## Output > 50 µM

## Input // Ki lookup, key: O=C(O)[C@H](CC#Cc1ccccc1)N[C@@H](CCc1ccccc1)C(=O)O
## Output 10 to 50 µM

## Input // Ki lookup, key: CC(C)CC(N[C@@H](CNc1ccccc1)C(=O)O)C(=O)O (single isomer, unassigned) [FI]
## Output > 50 µM

## Input // Ki lookup, key: O=C(O)C(Cc1ccc(O)cc1)N[C@@H](Cc1c[nH]cn1)C(=O)O (single isomer, unassigned) [DO]
## Output > 50 µM

## Input // Ki lookup, key: CC(C)C[C@H](NCCCc1ccccc1)C(=O)O
## Output > 50 µM

## Input // Ki lookup, key: CC(C)C[C@@H](N[C@H](C(=O)O)c1ccccc1)C(=O)O
## Output > 50 µM

## Input // Ki lookup, key: COC(=O)[C@H](CC(C)C)NCC(=O)[C@H](Cc1ccccc1)NC(=O)OCc1ccccc1
## Output 10 to 50 µM

## Input // Ki lookup, key: CC(C)CC(N[C@H](Cc1cn(Cc2ccccc2)cn1)C(=O)O)C(=O)O (stereo in doubt) [CW]
## Output > 50 µM

## Input // Ki lookup, key: O=C(O)[C@H](CC#Cc1ccccn1)N[C@@H](CCc1ccccc1)C(=O)O
## Output < 10 µM

## Input // Ki lookup, key: CC(C)C[C@H](N[C@@H](CCc1ccccc1)C(=O)O)C(N)=O
## Output > 50 µM

## Input // Ki lookup, key: CC(C)C[C@H](NC(C(=O)O)c1ccc(C(F)(F)F)cc1)C(=O)O (stereo in doubt)
## Output > 50 µM

## Input // Ki lookup, key: CC(C)CC(N[C@H](Cc1cccs1)C(=O)O)C(=O)O (stereo in doubt)
## Output 10 to 50 µM

## Input // Ki lookup, key: CC(C)CC(N[C@@H](Cc1c[nH]cn1)C(=O)Nc1ccc([N+](=O)[O-])cc1)C(=O)O (single isomer, unassigned) [EX]
## Output > 50 µM

## Input // Ki lookup, key: CC(C)CC(N[C@H](CC(=O)O)Cc1ccsc1)C(=O)O (stereo in doubt)
## Output > 50 µM

## Input // Ki lookup, key: CC(C)C[C@@H](N[C@@H](C(=O)O)c1ccccc1)C(=O)O
## Output > 50 µM

====

molecular target: ACE (Sigma, A2580) (Sus scrofa, UniProt F1RRW5); construct: ACE from porcine kidney; purchased Sigma A2580; host or cells: porcine kidney; assay: ACE enzymatic activity assay; assay type: biochemical, porcine; details: Ki class; compounds tested in 5% DMSO, 12 concentrations
Sequence (F1RRW5 34-1309): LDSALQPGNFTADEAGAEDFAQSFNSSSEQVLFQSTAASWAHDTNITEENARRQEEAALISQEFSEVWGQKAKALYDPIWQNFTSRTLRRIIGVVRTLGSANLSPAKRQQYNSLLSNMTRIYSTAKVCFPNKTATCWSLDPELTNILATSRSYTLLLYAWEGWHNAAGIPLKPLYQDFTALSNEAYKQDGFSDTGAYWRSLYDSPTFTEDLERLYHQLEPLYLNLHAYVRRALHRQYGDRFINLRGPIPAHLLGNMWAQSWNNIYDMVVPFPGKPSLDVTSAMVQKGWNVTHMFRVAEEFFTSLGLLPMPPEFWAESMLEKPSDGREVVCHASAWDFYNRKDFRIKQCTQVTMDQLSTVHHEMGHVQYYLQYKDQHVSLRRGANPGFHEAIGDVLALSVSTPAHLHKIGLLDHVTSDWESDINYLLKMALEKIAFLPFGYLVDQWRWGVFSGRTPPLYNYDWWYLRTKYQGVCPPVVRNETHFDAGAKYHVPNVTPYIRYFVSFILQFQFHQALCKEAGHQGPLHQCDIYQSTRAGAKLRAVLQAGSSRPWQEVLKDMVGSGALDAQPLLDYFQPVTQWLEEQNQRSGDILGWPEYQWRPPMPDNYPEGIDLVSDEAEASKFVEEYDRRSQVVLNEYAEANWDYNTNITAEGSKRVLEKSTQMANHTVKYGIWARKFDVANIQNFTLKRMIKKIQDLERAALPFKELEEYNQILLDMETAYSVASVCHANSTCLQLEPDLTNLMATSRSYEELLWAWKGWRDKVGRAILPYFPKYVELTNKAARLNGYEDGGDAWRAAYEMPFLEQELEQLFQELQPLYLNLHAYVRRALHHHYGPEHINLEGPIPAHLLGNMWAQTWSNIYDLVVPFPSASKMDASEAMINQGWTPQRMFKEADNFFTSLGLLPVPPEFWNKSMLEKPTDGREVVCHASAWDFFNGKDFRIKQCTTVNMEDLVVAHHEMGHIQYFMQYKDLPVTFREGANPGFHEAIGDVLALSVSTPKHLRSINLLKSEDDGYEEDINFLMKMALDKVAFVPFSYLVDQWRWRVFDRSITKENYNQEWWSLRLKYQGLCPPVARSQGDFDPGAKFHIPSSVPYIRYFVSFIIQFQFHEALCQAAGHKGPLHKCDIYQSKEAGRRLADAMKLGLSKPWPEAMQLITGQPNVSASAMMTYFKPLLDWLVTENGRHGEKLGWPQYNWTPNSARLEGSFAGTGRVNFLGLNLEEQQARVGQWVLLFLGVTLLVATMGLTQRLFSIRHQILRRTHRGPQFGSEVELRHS
Consider the following compounds; for each one, report its Ki.

## Input Record CCCCC(CC(=O)O)N[C@@H](Cc1c[nH]cn1)C(=O)O (single isomer, unassigned) [ET] : what is its Ki with ACE (Sigma, A2580) (Sus scrofa, UniProt F1RRW5)?
## Output > 50 µM

## Input Record CC(C)(C)C[C@H](N[C@@H](CCc1ccccc1)C(=O)O)C(=O)O : what is its Ki with ACE (Sigma, A2580) (Sus scrofa, UniProt F1RRW5)?
## Output > 50 µM

## Input Record CC(C)C[C@H](N[C@H](CC(=O)O)C(=O)O)C(=O)O : what is its Ki with ACE (Sigma, A2580) (Sus scrofa, UniProt F1RRW5)?
## Output > 50 µM

## Input Record O=C(O)C(CCc1ccccc1)N[C@@H](CC1CCCCC1)C(=O)O (stereo partly drawn) : what is its Ki with ACE (Sigma, A2580) (Sus scrofa, UniProt F1RRW5)?
## Output > 50 µM

## Input Record CC(C)CC(CS)C(=O)O (stereo not drawn) : what is its Ki with ACE (Sigma, A2580) (Sus scrofa, UniProt F1RRW5)?
## Output > 50 µM

## Input Record CC(C)CC(N[C@H](CCc1ccccc1)C(=O)O)C(=O)O (stereo partly drawn) : what is its Ki with ACE (Sigma, A2580) (Sus scrofa, UniProt F1RRW5)?
## Output > 50 µM

## Input Record COC(=O)[C@H](CC(C)C)NCC(=O)[C@H](Cc1ccccc1)NC(=O)OCc1ccccc1 : what is its Ki with ACE (Sigma, A2580) (Sus scrofa, UniProt F1RRW5)?
## Output > 50 µM

## Input Record CC(C)CC(N[C@@H](Cc1cn(Cc2ccccc2)cn1)C(=O)O)C(=O)O (stereo partly drawn) [BV] : what is its Ki with ACE (Sigma, A2580) (Sus scrofa, UniProt F1RRW5)?
## Output 10 to 50 µM

## Input Record C[C@H](N[C@@H](CCc1ccccc1)C(=O)O)C(=O)O : what is its Ki with ACE (Sigma, A2580) (Sus scrofa, UniProt F1RRW5)?
## Output > 50 µM

## Input Record CC(C)CC(N[C@@H](Cc1cncn1Cc1ccc(Cl)cc1)C(=O)O)C(=O)O (single isomer, unassigned) [GM] : what is its Ki with ACE (Sigma, A2580) (Sus scrofa, UniProt F1RRW5)?
## Output > 50 µM

## Input Record CC(C)CC(N[C@@H](Cc1cncn1COCc1ccccc1)C(N)=O)C(=O)O (single isomer, unassigned) [FB] : what is its Ki with ACE (Sigma, A2580) (Sus scrofa, UniProt F1RRW5)?
## Output > 50 µM

## Input Record CC(C)CC(N[C@H](Cc1cccnc1)C(=O)O)C(=O)O (stereo partly drawn) : what is its Ki with ACE (Sigma, A2580) (Sus scrofa, UniProt F1RRW5)?
## Output > 50 µM

## Input Record CC(C)C[C@H](NC(CN(C)c1ccccc1)C(=O)O)C(=O)O (stereo partly drawn) : what is its Ki with ACE (Sigma, A2580) (Sus scrofa, UniProt F1RRW5)?
## Output > 50 µM

## Input Record CC(C)CC(N[C@@H](Cc1cn(Cc2ccccc2)cn1)C(=O)O)C(=O)O (single isomer, unassigned) [DM] : what is its Ki with ACE (Sigma, A2580) (Sus scrofa, UniProt F1RRW5)?
## Output > 50 µM

## Input Record CC(C)CC(NC(CC(=O)O)c1ccccc1)C(=O)O (stereo not drawn) : what is its Ki with ACE (Sigma, A2580) (Sus scrofa, UniProt F1RRW5)?
## Output > 50 µM

## Input Record CSCC[C@H](NC(C)C(=O)O)C(=O)O (stereo partly drawn) : what is its Ki with ACE (Sigma, A2580) (Sus scrofa, UniProt F1RRW5)?
## Output > 50 µM

## Input Record CC(N[C@@H](Cc1c[nH]cn1)C(=O)O)C(=O)O (stereo partly drawn) : what is its Ki with ACE (Sigma, A2580) (Sus scrofa, UniProt F1RRW5)?
## Output > 50 µM

## Input Record CCC(C)C(NC(Cc1cncn1Cc1ccccc1)C(=O)O)C(=O)O (single isomer, unassigned) [GC] : what is its Ki with ACE (Sigma, A2580) (Sus scrofa, UniProt F1RRW5)?
## Output > 50 µM

## Input Record CC(C)CC(N[C@H](Cc1c[nH]cn1)C(=O)O)C(=O)O (single isomer, unassigned) [BJ] : what is its Ki with ACE (Sigma, A2580) (Sus scrofa, UniProt F1RRW5)?
## Output 10 to 50 µM

## Input Record COC(=O)[C@H](CC(C)C)NC(=O)NCc1ccccc1 : what is its Ki with ACE (Sigma, A2580) (Sus scrofa, UniProt F1RRW5)?
## Output > 50 µM

## Input Record CCCC(N[C@@H](CCSC)C(=O)O)C(=O)O (stereo in doubt) : what is its Ki with ACE (Sigma, A2580) (Sus scrofa, UniProt F1RRW5)?
## Output > 50 µM

## Input Record CC(C)CC(N[C@@H](Cc1c[nH]cn1)C(=O)O)C(=O)O (single isomer, unassigned) [BL] : what is its Ki with ACE (Sigma, A2580) (Sus scrofa, UniProt F1RRW5)?
## Output 10 to 50 µM

## Input Record CC(C)CC(N[C@@H](Cc1cncn1Cc1ccc(C(=O)O)cc1)C(=O)O)C(=O)O (single isomer, unassigned) [GO] : what is its Ki with ACE (Sigma, A2580) (Sus scrofa, UniProt F1RRW5)?
## Output > 50 µM

## Input Record CC(C)CC(N[C@@H](Cc1cn(Cc2ccc(Cl)cc2)cn1)C(=O)O)C(=O)O (stereo partly drawn) [EC] : what is its Ki with ACE (Sigma, A2580) (Sus scrofa, UniProt F1RRW5)?
## Output 10 to 50 µM

## Input Record CC(C)CC(N[C@@H](Cc1cn(-c2ccc([N+](=O)[O-])cc2[N+](=O)[O-])cn1)C(=O)O)C(=O)O (stereo in doubt) : what is its Ki with ACE (Sigma, A2580) (Sus scrofa, UniProt F1RRW5)?
## Output 10 to 50 µM

## Input Record CC(C)CCN[C@@H](Cc1c[nH]cn1)C(=O)O : what is its Ki with ACE (Sigma, A2580) (Sus scrofa, UniProt F1RRW5)?
## Output > 50 µM

## Input Record CC(C)CC(N[C@@H](Cc1c[nH]cn1)C(=O)NCC(=O)O)C(=O)O (stereo partly drawn) : what is its Ki with ACE (Sigma, A2580) (Sus scrofa, UniProt F1RRW5)?
## Output < 10 µM

## Input Record COC(=O)[C@H](CC(C)C)NCC(=O)c1ccc(-c2ccccc2)cc1 : what is its Ki with ACE (Sigma, A2580) (Sus scrofa, UniProt F1RRW5)?
## Output > 50 µM

## Input Record CC(C)C[C@@H](N[C@H](C(=O)O)c1ccccc1)C(=O)O : what is its Ki with ACE (Sigma, A2580) (Sus scrofa, UniProt F1RRW5)?
## Output > 50 µM

## Input Record O=C(O)C(Cc1ccccc1)NC(Cc1cncn1Cc1ccccc1)C(=O)O (stereo not drawn) : what is its Ki with ACE (Sigma, A2580) (Sus scrofa, UniProt F1RRW5)?
## Output > 50 µM

## Input Record CCCC(NC(Cc1c[nH]cn1)C(=O)O)C(=O)O (single isomer, unassigned) : what is its Ki with ACE (Sigma, A2580) (Sus scrofa, UniProt F1RRW5)?
## Output > 50 µM

## Input Record CCCC(N[C@@H](Cc1ccccc1)C(=O)O)C(=O)O (stereo partly drawn) : what is its Ki with ACE (Sigma, A2580) (Sus scrofa, UniProt F1RRW5)?
## Output > 50 µM

## Input Record CCCCC(N[C@@H](Cc1c[nH]cn1)C(=O)O)C(=O)O (single isomer, unassigned) [ED] : what is its Ki with ACE (Sigma, A2580) (Sus scrofa, UniProt F1RRW5)?
## Output > 50 µM

## Input Record CC(C)CC(N[C@@H](Cc1cnc[nH]1)C(=O)NCCc1ccccc1)C(=O)O (single isomer, unassigned) [FW] : what is its Ki with ACE (Sigma, A2580) (Sus scrofa, UniProt F1RRW5)?
## Output > 50 µM

## Input Record COC(=O)[C@H](Cc1c[nH]cn1)NC(CC(C)C)C(=O)O (single isomer, unassigned) [CT] : what is its Ki with ACE (Sigma, A2580) (Sus scrofa, UniProt F1RRW5)?
## Output > 50 µM

## Input Record CC(C)CC(N[C@@H](Cc1cn(Cc2ccc(C(F)(F)F)cc2)cn1)C(=O)O)C(=O)O (stereo partly drawn) : what is its Ki with ACE (Sigma, A2580) (Sus scrofa, UniProt F1RRW5)?
## Output > 50 µM
